Each entry below carries its reported EC50.
target: human PXR (Homo sapiens, UniProt O75469); construct: The GAL4-NR chimeric cell lines provide uniform cellular model differing just in receptor LBDs; expressed in transfected cells; host or cells: HG5LN PXR (HeLa-derived; described in Delfosse et al., 2015); test: HG5LN PXR reporter cell line, agonist mode; format: cell-based; details: HG5LN PXR cells, tested alone; NE = No effect; read-out: PXR EC50
Sequence (O75469 146-433 limits assumed): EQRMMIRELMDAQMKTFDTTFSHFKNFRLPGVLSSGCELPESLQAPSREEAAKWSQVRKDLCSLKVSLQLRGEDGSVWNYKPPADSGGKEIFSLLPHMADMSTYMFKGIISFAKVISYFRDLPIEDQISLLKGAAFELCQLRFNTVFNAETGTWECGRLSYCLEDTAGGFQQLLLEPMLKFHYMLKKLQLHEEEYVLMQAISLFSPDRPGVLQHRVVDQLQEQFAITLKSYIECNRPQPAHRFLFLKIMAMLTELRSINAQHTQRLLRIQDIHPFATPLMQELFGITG

Solved cases (2 shown):
O=C(Nc1ccc(C(O)(C(F)(F)F)C(F)(F)F)cc1)c1ccc(C(F)(F)F)cc1 = > 10 µM
COC(=O)/C=C/c1cccc(N(Cc2ccc(-c3ccc(N(C)C)cc3)cc2)C(=O)C2CCCCC2)c1 = > 10 µM

q: Report EC50 for `Cc1oc2ccccc2c1CNC(=O)NCc1cccs1` please.
a: > 10 µM
